Attribution: ChEMBL document CHEMBL1795213

Property: pKi; scope: individual compounds
target: UniProt:P08709; experiment: Inhibition of recombinant F7a using S-2288 as substrate after 15 mins by linear fitting analysis
Sequence (P08709 61-212 limits assumed): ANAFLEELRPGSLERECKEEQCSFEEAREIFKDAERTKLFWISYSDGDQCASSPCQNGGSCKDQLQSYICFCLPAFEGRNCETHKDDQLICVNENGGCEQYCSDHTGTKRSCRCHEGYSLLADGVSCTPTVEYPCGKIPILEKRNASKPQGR
Sequence (P08709 213-466 limits assumed): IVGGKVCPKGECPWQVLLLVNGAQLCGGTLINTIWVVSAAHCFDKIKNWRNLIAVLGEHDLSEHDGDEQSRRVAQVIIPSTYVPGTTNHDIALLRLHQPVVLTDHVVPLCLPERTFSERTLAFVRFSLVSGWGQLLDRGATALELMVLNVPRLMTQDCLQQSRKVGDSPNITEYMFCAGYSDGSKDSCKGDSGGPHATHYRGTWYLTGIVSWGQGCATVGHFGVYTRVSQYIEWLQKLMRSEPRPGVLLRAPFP
Quick note: pKi values are minus log10 of concentrations in mol/L.

N=C(N)NCCC[C@H](NC(=O)[C@H](Cc1ccccc1)NC(=O)[C@H](Cc1ccccc1)NS(=O)(=O)Cc1ccccc1)C(=O)Cc1ccccc1 | 4.37

Please give the documented pKi of `N=C(N)NCCC[C@H](NC(=O)[C@H](Cc1ccccc1)NC(=O)[C@H](Cc1ccccc1)NC(=O)OCc1ccccc1)C(=O)Cc1ccccc1`
4.05

Please give the documented pKi of `N=C(N)NCCC[C@H](NC(=O)[C@H](Cc1ccccc1)NC(=O)[C@@H](Cc1ccccc1)NC(=O)OCc1ccccc1)C(=O)Cc1ccccc1`
5.10
